Here, each record is paired with measured MIC data.
# System: Bacillus subtilis
# METHOD_DESCRIPTION: Antibacterial activity against Bacillus subtilis NBRC 13719 after 12 hrs by MTT assay
# Assay type: functional
# MEASUREMENT_PARAMETERS: NBRC 13719, 12 h
TEST_READOUT: MIC (µM)

• C=C1CCC[C@H]2[C@](C)(CC3=C(O)C(=O)C=C(OCCCC)C3=O)[C@@H](C)CC[C@]12C = 6.25
• CC1(C)S[C@@H]2[C@H](NC(=O)[C@H](N)c3ccccc3)C(=O)N2[C@H]1C(=O)O = 6.25
• C=C1CCC[C@@H]2[C@@](C)(Cc3cc(C(=O)OC)c(O)c(OC)c3O)[C@H](C)CC[C@@]12C = 12.5
• C=C1CCC[C@@H]2[C@@](C)(Cc3cc(C(=O)OC)cc(O)c3O)[C@H](C)CC[C@@]12C = 6.25
• C=C1CCC[C@@H]2[C@@](C=O)(Cc3cc(C(=O)OC)c(O)c(OC)c3O)[C@H](C)CC[C@@]12C = 25
• C=C1CCC[C@H]2[C@](C)(CC3=C(O)C(=O)C=C(NCC(C)CC)C3=O)[C@@H](C)CC[C@]12C (some centres undefined) = 6.25
• C=C1CCC[C@H]2[C@](C)(CC3=C(O)C(=O)C=C(OC)C3=O)[C@@H](C)CC[C@]12C = 6.25
• C=C1CCC[C@H]2[C@](C)(CC3=C(O)C(=O)C=C(NCC(C)C)C3=O)[C@@H](C)CC[C@]12C = 12.5
• C=C1CCC[C@H]2[C@](C)(CC3=C(O)C(=O)C=C(NCCc4ccccc4)C3=O)[C@@H](C)CC[C@]12C = 6.25
• C=C1CCC[C@H]2[C@](C)(CC3=C(O)C(=O)C=C(NCCCSC)C3=O)[C@@H](C)CC[C@]12C = 12.5

meta.source: ChEMBL document CHEMBL4020801
